Origin of measurements: ChEMBL document CHEMBL1145430

tgt: UniProt:P31645
Sequence (P31645 whole entry): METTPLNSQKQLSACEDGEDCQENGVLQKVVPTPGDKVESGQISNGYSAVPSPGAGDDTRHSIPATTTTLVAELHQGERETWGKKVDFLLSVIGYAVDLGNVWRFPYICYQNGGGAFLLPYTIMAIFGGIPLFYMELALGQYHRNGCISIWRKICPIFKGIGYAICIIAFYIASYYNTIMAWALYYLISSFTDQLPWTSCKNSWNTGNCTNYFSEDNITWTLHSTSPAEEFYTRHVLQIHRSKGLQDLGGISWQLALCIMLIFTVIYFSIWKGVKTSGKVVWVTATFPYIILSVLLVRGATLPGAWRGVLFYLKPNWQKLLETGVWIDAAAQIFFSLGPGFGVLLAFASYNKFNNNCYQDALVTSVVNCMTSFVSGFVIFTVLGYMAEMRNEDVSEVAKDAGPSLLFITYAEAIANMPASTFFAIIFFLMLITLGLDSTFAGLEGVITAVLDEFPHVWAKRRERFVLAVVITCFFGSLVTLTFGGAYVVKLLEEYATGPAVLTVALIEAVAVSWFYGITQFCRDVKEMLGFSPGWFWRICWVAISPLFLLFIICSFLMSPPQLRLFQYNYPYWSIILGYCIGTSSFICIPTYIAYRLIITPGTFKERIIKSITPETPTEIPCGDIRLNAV
pKi: −log10 of the molar value.
metric-name: pKi

Q: pKi lookup needed for `N#Cc1cc(F)cc(C#Cc2csc(CF)n2)c1` , thanks.
A: < 5.00

----------
tgt: D(3) dopamine receptor (Homo sapiens, UniProt P35462)
Sequence (P35462 whole entry): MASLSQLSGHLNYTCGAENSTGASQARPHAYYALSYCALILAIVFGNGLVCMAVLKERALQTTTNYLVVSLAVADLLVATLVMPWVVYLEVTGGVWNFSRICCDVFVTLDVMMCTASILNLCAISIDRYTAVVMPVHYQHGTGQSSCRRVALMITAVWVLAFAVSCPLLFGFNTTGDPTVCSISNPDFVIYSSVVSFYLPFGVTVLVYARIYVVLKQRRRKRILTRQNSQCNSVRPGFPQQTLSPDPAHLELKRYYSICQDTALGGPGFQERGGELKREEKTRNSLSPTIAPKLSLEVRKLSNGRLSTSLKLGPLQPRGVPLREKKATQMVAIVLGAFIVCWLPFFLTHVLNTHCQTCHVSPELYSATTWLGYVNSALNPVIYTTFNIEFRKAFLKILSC
metric-name: Ki

Q: Name the reported Ki value associated with the compound `N#Cc1cc(F)cc(C#Cc2csc(CF)n2)c1`
A: > 10 µM

----------
tgt: Muscarinic acetylcholine receptor M2 (Homo sapiens, UniProt P08172)
Sequence (P08172 whole entry): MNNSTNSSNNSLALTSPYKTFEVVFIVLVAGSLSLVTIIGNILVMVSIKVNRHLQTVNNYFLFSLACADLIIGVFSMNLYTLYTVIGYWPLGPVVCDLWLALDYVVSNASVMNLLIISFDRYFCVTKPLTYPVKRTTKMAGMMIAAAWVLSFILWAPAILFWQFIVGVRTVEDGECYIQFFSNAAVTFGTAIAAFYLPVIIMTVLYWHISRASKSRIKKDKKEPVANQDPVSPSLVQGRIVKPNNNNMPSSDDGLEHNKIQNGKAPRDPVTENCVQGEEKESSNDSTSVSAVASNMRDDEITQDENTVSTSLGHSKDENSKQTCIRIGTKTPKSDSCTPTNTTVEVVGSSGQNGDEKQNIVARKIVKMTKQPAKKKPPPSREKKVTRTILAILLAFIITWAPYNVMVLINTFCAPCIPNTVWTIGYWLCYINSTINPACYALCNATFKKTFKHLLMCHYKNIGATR
pKi: −log10 of the molar value.
metric-name: pKi

Q: I'm curious: which pKi was measured for `N#Cc1cc(F)cc(C#Cc2csc(CF)n2)c1` tested on Muscarinic acetylcholine receptor M2 (Homo sapiens, UniProt P08172)?
A: < 5.00

----------
tgt: 5-hydroxytryptamine receptor 6 (Homo sapiens)
Sequence (P50406 whole entry): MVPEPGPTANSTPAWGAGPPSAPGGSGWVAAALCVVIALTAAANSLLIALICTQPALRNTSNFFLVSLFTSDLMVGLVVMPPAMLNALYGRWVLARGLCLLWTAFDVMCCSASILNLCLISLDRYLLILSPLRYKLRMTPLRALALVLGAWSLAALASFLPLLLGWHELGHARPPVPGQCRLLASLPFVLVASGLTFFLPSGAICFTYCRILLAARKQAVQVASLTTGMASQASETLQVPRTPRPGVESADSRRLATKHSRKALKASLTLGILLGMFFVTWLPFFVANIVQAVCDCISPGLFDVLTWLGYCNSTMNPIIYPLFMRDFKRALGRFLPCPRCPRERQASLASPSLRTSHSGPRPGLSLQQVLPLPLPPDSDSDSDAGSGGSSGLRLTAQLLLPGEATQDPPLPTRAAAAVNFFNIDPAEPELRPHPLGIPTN
pKi: −log10 of the molar value.
metric-name: pKi

Q: // lookup pKi for `N#Cc1cc(F)cc(C#Cc2csc(CF)n2)c1`
A: < 5.00

----------
tgt: Mu-type opioid receptor (Homo sapiens, UniProt P35372)
Sequence (P35372 whole entry): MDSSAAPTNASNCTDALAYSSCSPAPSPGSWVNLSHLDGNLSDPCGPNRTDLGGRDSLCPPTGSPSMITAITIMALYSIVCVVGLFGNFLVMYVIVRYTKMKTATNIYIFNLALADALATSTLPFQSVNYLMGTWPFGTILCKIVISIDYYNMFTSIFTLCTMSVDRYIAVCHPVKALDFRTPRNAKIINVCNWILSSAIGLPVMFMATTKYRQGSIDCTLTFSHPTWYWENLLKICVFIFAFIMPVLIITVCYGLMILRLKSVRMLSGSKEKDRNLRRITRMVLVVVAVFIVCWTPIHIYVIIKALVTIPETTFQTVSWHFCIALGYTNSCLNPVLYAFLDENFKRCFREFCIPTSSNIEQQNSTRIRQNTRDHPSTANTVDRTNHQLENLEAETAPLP
measurement-protocol: Displacement of [3H]diprenorphine from mu opioid receptor
pKi: −log10 of the molar value.
metric-name: pKi

Q: pKi of `N#Cc1cc(F)cc(C#Cc2csc(CF)n2)c1` on Mu-type opioid receptor (Homo sapiens, UniProt P35372)?
A: < 5.00

----------
tgt: Sigma non-opioid intracellular receptor 1 (Homo sapiens)
Sequence (Q99720 whole entry): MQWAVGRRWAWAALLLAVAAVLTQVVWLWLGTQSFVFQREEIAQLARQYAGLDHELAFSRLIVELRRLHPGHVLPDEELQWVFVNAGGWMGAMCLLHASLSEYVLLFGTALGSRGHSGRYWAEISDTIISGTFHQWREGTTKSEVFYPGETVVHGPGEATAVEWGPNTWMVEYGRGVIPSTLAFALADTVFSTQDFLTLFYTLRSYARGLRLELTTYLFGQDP
measurement-protocol: Binding affinity to sigma1 receptor
pKi: −log10 of the molar value.
metric-name: pKi

Q: State the recorded pKi for this entry: `N#Cc1cc(F)cc(C#Cc2csc(CF)n2)c1`
A: < 5.00

----------
tgt: 5-hydroxytryptamine receptor 1E (Homo sapiens)
Sequence (P28566 whole entry): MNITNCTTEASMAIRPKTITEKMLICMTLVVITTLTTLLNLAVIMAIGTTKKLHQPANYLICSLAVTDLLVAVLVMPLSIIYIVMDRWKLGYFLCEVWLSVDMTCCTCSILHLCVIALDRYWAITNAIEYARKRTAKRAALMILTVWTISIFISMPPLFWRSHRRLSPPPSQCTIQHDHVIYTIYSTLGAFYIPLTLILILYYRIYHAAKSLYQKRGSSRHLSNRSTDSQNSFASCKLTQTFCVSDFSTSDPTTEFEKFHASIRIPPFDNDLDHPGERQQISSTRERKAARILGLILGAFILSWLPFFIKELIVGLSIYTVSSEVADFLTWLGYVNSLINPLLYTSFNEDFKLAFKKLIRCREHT
pKi: −log10 of the molar value.
metric-name: pKi

Q: So what does the record say about pKi for `N#Cc1cc(F)cc(C#Cc2csc(CF)n2)c1` ?
A: < 5.00

----------
measurement-protocol: Stability in human whole blood at 2 uCi
Format: ADME, tissue-based
condition-info: read-out: Stability
metric-name: remaining at 2 uCi

Q: Please give the measured remaining at 2 uCi for this compound: `N#Cc1cc(F)cc(C#Cc2csc(C[18F])n2)c1`
A: > 98%

----------
tgt: Histamine H4 receptor (Homo sapiens, UniProt Q9H3N8)
pKi: −log10 of the molar value.
metric-name: pKi

Q: So what does the record say about pKi for `N#Cc1cc(F)cc(C#Cc2csc(CF)n2)c1` ?
A: < 5.00

----------
tgt: Alpha-2C adrenergic receptor (Homo sapiens, UniProt P18825)
Sequence (P18825 whole entry): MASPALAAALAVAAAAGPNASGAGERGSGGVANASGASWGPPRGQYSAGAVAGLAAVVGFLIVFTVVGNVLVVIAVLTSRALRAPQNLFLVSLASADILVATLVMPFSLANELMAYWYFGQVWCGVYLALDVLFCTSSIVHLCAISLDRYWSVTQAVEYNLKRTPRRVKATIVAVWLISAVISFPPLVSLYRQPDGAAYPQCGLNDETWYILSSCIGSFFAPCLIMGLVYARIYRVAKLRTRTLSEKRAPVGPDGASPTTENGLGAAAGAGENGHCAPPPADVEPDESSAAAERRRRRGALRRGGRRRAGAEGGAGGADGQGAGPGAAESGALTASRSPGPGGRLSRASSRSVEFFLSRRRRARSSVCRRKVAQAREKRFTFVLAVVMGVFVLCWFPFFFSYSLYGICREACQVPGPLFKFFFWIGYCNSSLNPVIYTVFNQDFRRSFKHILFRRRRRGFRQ
pKi: −log10 of the molar value.
metric-name: pKi

Q: Which value of pKi has been reported for `N#Cc1cc(F)cc(C#Cc2csc(CF)n2)c1` in the records?
A: < 5.00

----------
Exercise: state measured log10(IC50) for each of the molecules provided.
tgt: Metabotropic glutamate receptor 5 (Rattus norvegicus, UniProt P31424)
Sequence (P31424 whole entry): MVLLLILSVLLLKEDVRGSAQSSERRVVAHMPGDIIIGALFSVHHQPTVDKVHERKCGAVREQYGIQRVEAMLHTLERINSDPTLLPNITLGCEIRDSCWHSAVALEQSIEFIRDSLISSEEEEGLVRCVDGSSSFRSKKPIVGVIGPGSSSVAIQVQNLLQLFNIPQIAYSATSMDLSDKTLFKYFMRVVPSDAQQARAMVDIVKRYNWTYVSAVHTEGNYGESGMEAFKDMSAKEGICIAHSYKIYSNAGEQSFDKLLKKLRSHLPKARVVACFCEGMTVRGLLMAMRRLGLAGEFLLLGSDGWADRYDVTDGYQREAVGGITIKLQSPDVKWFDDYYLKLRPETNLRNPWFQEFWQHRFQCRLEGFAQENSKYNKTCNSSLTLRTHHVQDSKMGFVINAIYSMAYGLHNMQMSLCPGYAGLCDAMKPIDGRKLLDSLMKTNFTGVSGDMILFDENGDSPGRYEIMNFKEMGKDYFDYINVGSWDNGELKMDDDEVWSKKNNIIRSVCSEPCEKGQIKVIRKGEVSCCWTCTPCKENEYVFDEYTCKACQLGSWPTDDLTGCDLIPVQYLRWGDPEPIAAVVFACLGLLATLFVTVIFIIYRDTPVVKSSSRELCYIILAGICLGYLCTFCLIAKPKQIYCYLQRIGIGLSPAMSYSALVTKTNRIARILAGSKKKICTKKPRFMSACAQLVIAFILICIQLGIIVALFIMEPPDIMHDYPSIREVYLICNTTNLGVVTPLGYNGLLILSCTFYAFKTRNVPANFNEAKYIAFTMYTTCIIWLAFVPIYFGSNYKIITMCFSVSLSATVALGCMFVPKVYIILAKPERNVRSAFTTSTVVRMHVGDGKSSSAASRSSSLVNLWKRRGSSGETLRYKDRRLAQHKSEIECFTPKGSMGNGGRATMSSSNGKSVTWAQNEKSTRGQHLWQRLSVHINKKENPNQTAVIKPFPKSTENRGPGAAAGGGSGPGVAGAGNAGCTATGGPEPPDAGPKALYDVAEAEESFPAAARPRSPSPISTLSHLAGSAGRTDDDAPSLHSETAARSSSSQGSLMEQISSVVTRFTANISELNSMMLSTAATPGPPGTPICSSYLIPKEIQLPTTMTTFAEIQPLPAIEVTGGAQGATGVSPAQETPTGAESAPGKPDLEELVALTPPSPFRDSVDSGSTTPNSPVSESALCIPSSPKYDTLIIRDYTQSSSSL
measurement-protocol: Displacement of […] from mGluR5 in rat brain membrane
Heads up, the numbers here are log10 of IC50 in pM units.

In the examples that follow, each entry is paired with its recorded log10(IC50).
[
  {
    "smiles-code": "FCc1nc(C#Cc2cccc(F)c2)cs1",
    "log10(IC50)": 2.68
  },
  {
    "smiles-code": "N#Cc1cncc(C#Cc2csc(CF)n2)c1",
    "log10(IC50)": 2.36
  },
  {
    "smiles-code": "N#Cc1cc(F)cc(C#Cc2csc(CF)n2)c1",
    "log10(IC50)": 1.56
  },
  {
    "smiles-code": "N#Cc1cccc(C#Cc2csc(CF)n2)c1",
    "log10(IC50)": 1.78
  }
]

We now examine a further molecule.
Q: Item `COc1cccc(C#Cc2csc(CF)n2)c1` has what recorded log10(IC50)?
A: 2.72

----------
measurement-protocol: Stability in human brain at 50 uCi in 37 degC after 3 hrs
Format: ADME, tissue-based
metric-name: remaining at 3 h, 50 uCi (%)
Numbers only, in %.

Q: Fill in: remaining at 3 h, 50 uCi of `N#Cc1cc(F)cc(C#Cc2csc(C[18F])n2)c1` is ___
A: 98.6

----------
Target protein (sequence): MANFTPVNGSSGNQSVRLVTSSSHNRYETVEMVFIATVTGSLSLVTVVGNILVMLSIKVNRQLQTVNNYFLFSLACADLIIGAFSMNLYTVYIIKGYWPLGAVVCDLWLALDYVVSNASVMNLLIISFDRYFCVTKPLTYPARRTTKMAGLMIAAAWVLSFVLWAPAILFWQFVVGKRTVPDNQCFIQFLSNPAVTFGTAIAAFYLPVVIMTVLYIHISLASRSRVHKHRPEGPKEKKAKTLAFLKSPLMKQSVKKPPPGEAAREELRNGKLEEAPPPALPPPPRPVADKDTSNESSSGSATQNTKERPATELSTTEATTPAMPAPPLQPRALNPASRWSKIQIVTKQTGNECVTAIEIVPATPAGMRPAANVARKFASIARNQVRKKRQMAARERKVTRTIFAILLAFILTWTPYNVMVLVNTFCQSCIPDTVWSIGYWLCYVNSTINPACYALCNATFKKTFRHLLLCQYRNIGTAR
metric-name: Ki

Q: Please give the measured Ki for this compound: `N#Cc1cc(F)cc(C#Cc2csc(CF)n2)c1`
A: > 10 µM

----------
measurement-protocol: Displacement of [3H]MK-801 from NMDA receptor
Parameters: species or system Homo sapiens
pKi: −log10 of the molar value.
metric-name: pKi

Q: If you can, please state the reported pKi value of `N#Cc1cc(F)cc(C#Cc2csc(CF)n2)c1` .
A: < 5.00

----------
Target sequence: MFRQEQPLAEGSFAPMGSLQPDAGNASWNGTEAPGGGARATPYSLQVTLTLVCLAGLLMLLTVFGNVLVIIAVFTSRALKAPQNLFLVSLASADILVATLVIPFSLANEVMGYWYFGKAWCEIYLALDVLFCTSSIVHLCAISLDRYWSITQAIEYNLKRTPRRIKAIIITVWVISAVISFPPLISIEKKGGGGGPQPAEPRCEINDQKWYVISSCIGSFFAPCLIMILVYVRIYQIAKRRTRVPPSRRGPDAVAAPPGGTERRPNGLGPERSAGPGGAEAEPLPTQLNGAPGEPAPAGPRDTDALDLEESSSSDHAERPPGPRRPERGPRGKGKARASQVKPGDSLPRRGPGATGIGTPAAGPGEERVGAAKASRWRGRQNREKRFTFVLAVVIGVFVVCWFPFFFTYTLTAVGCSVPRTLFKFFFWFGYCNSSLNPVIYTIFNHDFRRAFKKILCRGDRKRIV
metric-name: Ki

Q: Query: Ki; subject: `N#Cc1cc(F)cc(C#Cc2csc(CF)n2)c1`
A: > 10 µM

----------
tgt: Delta-type opioid receptor (Homo sapiens)
Sequence (P41143 whole entry): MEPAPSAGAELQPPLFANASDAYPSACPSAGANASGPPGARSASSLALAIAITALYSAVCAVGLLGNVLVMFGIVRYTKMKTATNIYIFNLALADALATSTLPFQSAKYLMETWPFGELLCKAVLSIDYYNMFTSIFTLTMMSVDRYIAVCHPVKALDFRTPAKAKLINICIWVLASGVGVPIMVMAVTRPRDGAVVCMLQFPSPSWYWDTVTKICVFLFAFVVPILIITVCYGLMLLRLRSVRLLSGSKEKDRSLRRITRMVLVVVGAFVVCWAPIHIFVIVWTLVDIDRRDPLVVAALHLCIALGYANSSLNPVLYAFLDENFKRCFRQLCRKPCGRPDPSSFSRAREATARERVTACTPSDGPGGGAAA
measurement-protocol: Displacement of [3H]DADLE from delta opioid receptor
pKi: −log10 of the molar value.
metric-name: pKi

Q: So what's the measured pKi for this one? `N#Cc1cc(F)cc(C#Cc2csc(CF)n2)c1`
A: < 5.00
